target: b-Raf(V600E) (Homo sapiens, UniProt P15056, V600E); assay: Raf/Mek Amplified Luminescence Proximity Homogeneous Assay (Alpha Screen); settings: b-Raf(V600E) approximately 4 pM; biotinylated Mek, kinase dead approximately 10 nM; ATP 10 μM; pre-incubation 60 minutes; reaction 3 hours at room temperature; read-out: mut-bRaf IC50
Sequence (P15056 whole entry V600E): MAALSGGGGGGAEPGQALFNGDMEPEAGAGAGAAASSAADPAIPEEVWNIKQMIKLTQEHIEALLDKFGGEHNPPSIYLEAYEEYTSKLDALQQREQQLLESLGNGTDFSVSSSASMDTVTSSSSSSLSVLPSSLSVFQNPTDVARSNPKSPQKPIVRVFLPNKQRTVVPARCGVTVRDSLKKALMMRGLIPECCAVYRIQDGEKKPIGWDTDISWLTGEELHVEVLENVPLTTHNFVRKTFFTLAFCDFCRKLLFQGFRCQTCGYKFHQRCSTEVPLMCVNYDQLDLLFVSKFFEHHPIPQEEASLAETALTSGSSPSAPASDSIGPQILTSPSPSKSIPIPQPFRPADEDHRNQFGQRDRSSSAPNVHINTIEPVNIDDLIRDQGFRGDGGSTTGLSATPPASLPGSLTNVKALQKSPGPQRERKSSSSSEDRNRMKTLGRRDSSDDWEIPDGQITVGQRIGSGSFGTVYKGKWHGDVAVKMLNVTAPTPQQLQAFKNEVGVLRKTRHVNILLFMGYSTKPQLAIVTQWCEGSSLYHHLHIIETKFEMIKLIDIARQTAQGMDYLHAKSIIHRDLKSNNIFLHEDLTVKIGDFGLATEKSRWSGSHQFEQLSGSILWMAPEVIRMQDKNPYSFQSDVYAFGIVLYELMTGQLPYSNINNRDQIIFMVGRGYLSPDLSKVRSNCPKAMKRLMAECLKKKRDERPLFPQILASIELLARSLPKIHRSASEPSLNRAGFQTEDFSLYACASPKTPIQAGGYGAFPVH
Class key for IC50 values: lo (below 300 pM), med (300 pM to below 600 pM), hi (600 pM or more)

Reference set (4 entries):
SMILES_INPUT | GROUP_LABEL
CS(=O)(=O)Nc1cc(Cl)cc(-c2nc(C3CC3)oc2-c2ccnc(N)n2)c1Cl | med
CCCS(=O)(=O)Nc1cc(Cl)cc(-c2nc(C3CC3)oc2-c2ccnc(NC[C@H](C)NC(=O)OC)n2)c1Cl | med
CNc1nccc(-c2sc(C(C)(C)C)nc2-c2cc(Cl)cc(NS(C)(=O)=O)c2F)n1 | hi
COC(=O)N[C@@H](C)CNc1nccc(-c2sc(C3CC3)nc2-c2cc(Cl)cc(NS(C)(=O)=O)c2Cl)n1 | lo

Field: next compound
Which bin, given its IC50, does CCCS(=O)(=O)Nc1cc(Cl)cc(-c2nc(C(C)(C)C)sc2-c2ccnc(NC[C@H](C)NC(=O)OC)n2)c1Cl occupy? hi

---

biological target: b-Raf(V600E) (Homo sapiens, UniProt P15056, V600E); assay: Raf/Mek Amplified Luminescence Proximity Homogeneous Assay (Alpha Screen); settings: b-Raf(V600E) approximately 4 pM; biotinylated Mek, kinase dead approximately 10 nM; ATP 10 μM; pre-incubation 60 minutes; reaction 3 hours at room temperature; read-out: mut-bRaf IC50
Listed here: items and their measured pIC50.
On this scale, pIC50 is minus log10 of a concentration expressed in M (mol/L).

Past entries and their recorded results:
COMPOUND | VALUE
CCCS(=O)(=O)Nc1cc(F)cc(-c2nc(C(C)(C)C)sc2-c2ccncn2)c1Cl [Example 2] | 9.36
CCCS(=O)(=O)Nc1cc(F)cc(-c2nc(C3CC3)sc2-c2ccnc(NC)n2)c1Cl [Example 14] | 10.04
CCCS(=O)(=O)Nc1cc(Cl)cc(-c2nc(C3CC3)sc2-c2ccnc(N)n2)c1F [Example 66] | 10.24
COC(=O)N[C@@H](C)CNc1nccc(-c2oc(C3CC3)nc2-c2cc(Cl)cc(NS(C)(=O)=O)c2F)n1 [Example 5] | 9.09
CC(C)(C)c1nc(-c2cc(F)cc(NS(C)(=O)=O)c2Cl)c(-c2ccnc(N)n2)s1 [Example 12] | 8.05

We now examine a further compound.
Any idea what its pIC50 is? The compound is CCCS(=O)(=O)Nc1cc(Cl)cc(-c2nc(C3CC3)oc2-c2ccnc(N)n2)c1F [Example 63] 10.36
